studyTarget: HNF4alpha8 (COS-7 nuclear extract) (Homo sapiens, UniProt P41235-5 1-452)
Sequence: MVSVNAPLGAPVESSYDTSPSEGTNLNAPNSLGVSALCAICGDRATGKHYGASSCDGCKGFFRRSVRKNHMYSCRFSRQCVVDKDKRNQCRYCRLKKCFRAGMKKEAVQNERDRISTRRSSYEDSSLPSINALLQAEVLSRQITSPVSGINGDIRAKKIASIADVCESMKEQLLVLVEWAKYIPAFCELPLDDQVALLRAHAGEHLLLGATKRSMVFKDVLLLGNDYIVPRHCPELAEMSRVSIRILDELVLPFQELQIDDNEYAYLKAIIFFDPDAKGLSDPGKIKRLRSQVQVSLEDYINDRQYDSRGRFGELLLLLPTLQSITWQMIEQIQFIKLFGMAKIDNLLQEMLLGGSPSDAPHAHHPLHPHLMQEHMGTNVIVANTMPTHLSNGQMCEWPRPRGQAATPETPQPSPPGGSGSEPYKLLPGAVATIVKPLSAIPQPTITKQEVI
experiment: protein-binding microarray; COS-7 nuclear extract on double-stranded Agilent 4x180k PBM; binding buffer, salt, pH and temperature not given in the material; high values mean tight binding
statedConditions: chain copies: 2; label: 3' end of strand 1 on the slide; dsDNA, one strand shown
Whole data set: some 18,000 sequences, median “log2 normalized intensity” near 0.36, cut for the highest 2% near 7.3. This is one part of a sample in which the highest values are shown more often than they occur.
List of binding signal values.

{"seqString": "GGACTTTGAACCTTGGGTCTGTAATCTCACGCCTAGGGAGATTAGAGTATCGGTCGA", "binding signal": "7.84 log2 normalized intensity"}
{"seqString": "TCCTTCTTGCTTAGGATAGGGTCAGTCTTTGCCTAGGGAGATTAGAGTATCGGTCGA", "binding signal": "2.48 log2 normalized intensity"}
{"seqString": "GCAAACCTACCTGAACTTTGCCCCAGAGGAGCCTAGGGAGATTAGAGTATCGGTCGA", "binding signal": "6.74 log2 normalized intensity"}
{"seqString": "CCTTGGGTCTGTAATCTCACAACTCAGAAGGCCTAGGGAGATTAGAGTATCGGTCGA", "binding signal": "-0.129 log2 normalized intensity"}
{"seqString": "CCTTGCCACCCACACTGCAGCAAAACTTTAGCCTAGGGAGATTAGAGTATCGGTCGA", "binding signal": "-0.731 log2 normalized intensity"}
{"seqString": "TTCCCTGAGTTTCCATTAACTGAACCTAGAGCCTAGGGAGATTAGAGTATCGGTCGA", "binding signal": "1.69 log2 normalized intensity"}
{"seqString": "TGTCCCTCCTGACCTTTGGACTTGATAGAGGCCTAGGGAGATTAGAGTATCGGTCGA", "binding signal": "9.7 log2 normalized intensity"}
{"seqString": "AGAGCAAGGGTCAAGGGTCATTTGTTTTTAGCCTAGGGAGATTAGAGTATCGGTCGA", "binding signal": "6.31 log2 normalized intensity"}
{"seqString": "CGCATCTGAAGATAAGAGAAGTTGCTCTTTGCCTAGGGAGATTAGAGTATCGGTCGA", "binding signal": "2.63 log2 normalized intensity"}
{"seqString": "CACACTGCAGCAAAACTTTAGGACTTTGAAGCCTAGGGAGATTAGAGTATCGGTCGA", "binding signal": "4.12 log2 normalized intensity"}
{"seqString": "ATAAGGGGCAGCAAACCTACCTGAACTTTGGCCTAGGGAGATTAGAGTATCGGTCGA", "binding signal": "3.58 log2 normalized intensity"}
{"seqString": "CAAAACTTTAGGACTTTGAACCTTGGGTCTGCCTAGGGAGATTAGAGTATCGGTCGA", "binding signal": "7.83 log2 normalized intensity"}
{"seqString": "TTAGGGGTTAGGGTTAGGGTTAGGGTTACGGCCTAGGGAGATTAGAGTATCGGTCGA", "binding signal": "1.17 log2 normalized intensity"}
{"seqString": "AGTCCTGACCTTGGACTCTGCCCTTGGCCTGCCTAGGGAGATTAGAGTATCGGTCGA", "binding signal": "6.67 log2 normalized intensity"}
{"seqString": "AAATGTACTGGATATAGCCAGATGTCCTTTGCCTAGGGAGATTAGAGTATCGGTCGA", "binding signal": "2.37 log2 normalized intensity"}
{"seqString": "GGCTCCCTGGGGTTAAAATGTTTACTGAAGGCCTAGGGAGATTAGAGTATCGGTCGA", "binding signal": "0.937 log2 normalized intensity"}
{"seqString": "TGTGTCAAAGGTCACTTAGTCCCTAAGTCTGCCTAGGGAGATTAGAGTATCGGTCGA", "binding signal": "5.26 log2 normalized intensity"}
{"seqString": "CCTGACCTGCCCTTTGTCCCTCCTGCTAGTGCCTAGGGAGATTAGAGTATCGGTCGA", "binding signal": "3.93 log2 normalized intensity"}
{"seqString": "GGGAGGAGGGCAACCTTTGAACTGGGTCTTGCCTAGGGAGATTAGAGTATCGGTCGA", "binding signal": "4.84 log2 normalized intensity"}
